STUDY_SYSTEM: TNKS2 (Homo sapiens (Human), UniProt Q9H2K2)
Sequence (Q9H2K2 whole entry): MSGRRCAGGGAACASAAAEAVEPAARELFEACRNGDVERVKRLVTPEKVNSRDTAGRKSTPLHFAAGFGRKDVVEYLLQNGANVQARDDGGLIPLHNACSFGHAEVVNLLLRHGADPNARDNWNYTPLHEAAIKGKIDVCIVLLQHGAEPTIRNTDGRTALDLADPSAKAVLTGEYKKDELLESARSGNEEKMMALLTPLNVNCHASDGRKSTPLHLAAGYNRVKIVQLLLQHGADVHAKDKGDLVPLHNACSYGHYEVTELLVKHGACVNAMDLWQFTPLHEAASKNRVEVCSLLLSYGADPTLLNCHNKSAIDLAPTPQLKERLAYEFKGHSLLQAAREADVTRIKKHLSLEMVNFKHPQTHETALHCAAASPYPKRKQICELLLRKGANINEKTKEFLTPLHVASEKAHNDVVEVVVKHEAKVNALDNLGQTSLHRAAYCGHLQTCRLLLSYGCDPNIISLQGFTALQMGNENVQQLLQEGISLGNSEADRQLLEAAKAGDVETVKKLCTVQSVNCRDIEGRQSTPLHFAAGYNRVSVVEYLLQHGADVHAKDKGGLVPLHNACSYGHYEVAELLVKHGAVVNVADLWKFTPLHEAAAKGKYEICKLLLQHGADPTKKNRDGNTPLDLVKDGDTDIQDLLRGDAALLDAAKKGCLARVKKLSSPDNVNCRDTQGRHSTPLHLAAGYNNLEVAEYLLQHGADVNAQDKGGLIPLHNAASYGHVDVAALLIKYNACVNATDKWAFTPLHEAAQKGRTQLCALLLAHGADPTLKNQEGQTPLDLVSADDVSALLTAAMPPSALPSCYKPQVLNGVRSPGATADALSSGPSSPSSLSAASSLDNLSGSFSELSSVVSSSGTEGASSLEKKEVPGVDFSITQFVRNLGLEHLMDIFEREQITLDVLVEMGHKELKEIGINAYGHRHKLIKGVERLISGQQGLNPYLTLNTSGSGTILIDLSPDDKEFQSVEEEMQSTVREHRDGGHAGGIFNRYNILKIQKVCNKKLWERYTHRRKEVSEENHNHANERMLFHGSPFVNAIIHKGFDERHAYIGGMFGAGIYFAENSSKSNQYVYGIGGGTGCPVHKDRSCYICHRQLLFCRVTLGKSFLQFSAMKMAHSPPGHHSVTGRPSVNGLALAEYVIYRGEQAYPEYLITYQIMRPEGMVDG
EXPERIMENT_NOTES: Biochemical IC50 TNKS2
APPLIED_CONDITIONS: read-out: Biochemical IC50 TNKS2
Measured IC50 accompanies every entry in the list below.
Your answer is read as nM, so omit the unit and give the number.

# example entries with known answers
In [3]: df
Out[3]:
                                   compound                              study_system  result
0  Cc1cccc(-c2nnc([C@H]3C[C@H](NC(=O)c4cc(F)cc5nccnc45)C3)n2-c2ccccc2F)n1 [Example 202]  TNKS2 (Homo sapiens (Human), UniProt Q9H2K2)     1.6
1  CCOc1ccc(-c2nnc([C@H]3C[C@H](NC(=O)c4ccccn4)C3)n2-c2ccc(C)s2)nc1 [Example 81]  TNKS2 (Homo sapiens (Human), UniProt Q9H2K2)     4.6
2  O=C(N[C@H]1C[C@H](c2nnc(-c3ccccc3)n2-c2ccccc2F)C1)c1ccnc2cc(F)cnc12 [Example 177]  TNKS2 (Homo sapiens (Human), UniProt Q9H2K2)     3.8
3  O=C(N[C@H]1C[C@H](c2nnc(-c3nccs3)n2-c2ccccc2Cl)C1)c1ccccn1 [Example 42]  TNKS2 (Homo sapiens (Human), UniProt Q9H2K2)     5.9
4  CCOc1ccc(-c2nnc([C@H]3C[C@H](NC(=O)c4cn5ccccc5n4)C3)n2-c2ccccc2F)nc1 [Example 118]  TNKS2 (Homo sapiens (Human), UniProt Q9H2K2)      12
5  CCOc1ccc(-c2nnc([C@H]3C[C@H](NC(=O)c4cc(C)ccn4)C3)n2-c2ccccc2F)nc1 [Example 103]  TNKS2 (Homo sapiens (Human), UniProt Q9H2K2)     4.5

Consider now this further compound.
Q) Quick check: IC50 of CCOc1ccc(-c2nnc([C@H]3C[C@H](NC(=O)c4cc(C)nc5ncnn45)C3)n2-c2ccccc2F)nc1 [Example 158] ?
A) 26
